Tested on: Staphylococcus aureus
test_name: Antimicrobial activity against Staphylococcus aureus clone 2-2 harboring staphylococcal cassette chromosome mec element type 4 assessed as percent susceptible isolates by kirby-bauer method
Format: functional
quantity_measured: Activity (%)

smiles_string	quantity_measured	observed_result
CO[C@H]1/C=C/O[C@@]2(C)Oc3c(C)c(O)c4c(O)c(c(/C=N/N5CCN(C)CC5)c(O)c4c3C2=O)NC(=O)/C(C)=C\C=C\[C@H](C)[C@H](O)[C@@H](C)[C@@H](O)[C@@H](C)[C@H](OC(C)=O)[C@@H]1C	Activity	94
CO/N=C(\C(=O)N[C@@H]1C(=O)N2C(C(=O)O)=C(CSc3nc(=O)c(O)nn3C)CS[C@H]12)c1csc(N)n1	Activity	0
CC[C@H]1OC(=O)[C@H](C)[C@@H](O[C@H]2C[C@@](C)(OC)[C@@H](O)[C@H](C)O2)[C@H](C)[C@@H](O[C@@H]2O[C@H](C)C[C@H](N(C)C)[C@H]2O)[C@](C)(O)C[C@@H](C)C(=O)[C@H](C)[C@@H](O)[C@]1(C)O	Activity	39
CCC[C@@H]1C[C@@H](C(=O)N[C@@H]([C@H]2O[C@H](SC)[C@H](O)[C@@H](O)[C@H]2O)[C@H](C)Cl)N(C)C1	Activity	56
CC(=O)O[C@H]1C[C@@]2(C)[C@@H](C[C@@H](O)[C@H]3[C@@]4(C)CC[C@@H](O)[C@@H](C)[C@@H]4CC[C@@]32C)/C1=C(\CCC=C(C)C)C(=O)O	Activity	100

====

Overview of recorded Activity for various compounds
Tested on: Staphylococcus aureus
test_name: Antimicrobial activity against Staphylococcus aureus clone 2-2 harboring staphylococcal cassette chromosome mec element type 1 assessed as percent susceptible isolates by kirby-bauer method
Type: functional

smiles_string	system_tested	unit_abbrev	Activity
CC(=O)O[C@H]1C[C@@]2(C)[C@@H](C[C@@H](O)[C@H]3[C@@]4(C)CC[C@@H](O)[C@@H](C)[C@@H]4CC[C@@]32C)/C1=C(\CCC=C(C)C)C(=O)O	Staphylococcus aureus	%	0
CO[C@H]1/C=C/O[C@@]2(C)Oc3c(C)c(O)c4c(O)c(c(/C=N/N5CCN(C)CC5)c(O)c4c3C2=O)NC(=O)/C(C)=C\C=C\[C@H](C)[C@H](O)[C@@H](C)[C@@H](O)[C@@H](C)[C@H](OC(C)=O)[C@@H]1C	Staphylococcus aureus	%	100

====

Test system: Staphylococcus aureus
test_name: Antimicrobial activity against Staphylococcus aureus clone 1-1 harboring staphylococcal cassette chromosome mec element type 4 assessed as percent susceptible isolates by kirby-bauer method
Assay type: functional
quantity_measured: Activity

smiles_string	quantity_measured	observed_result
CO/N=C(\C(=O)N[C@@H]1C(=O)N2C(C(=O)O)=C(CSc3nc(=O)c(O)nn3C)CS[C@H]12)c1csc(N)n1	Activity	2%
CO[C@H]1/C=C/O[C@@]2(C)Oc3c(C)c(O)c4c(O)c(c(/C=N/N5CCN(C)CC5)c(O)c4c3C2=O)NC(=O)/C(C)=C\C=C\[C@H](C)[C@H](O)[C@@H](C)[C@@H](O)[C@@H](C)[C@H](OC(C)=O)[C@@H]1C	Activity	100%
CC[C@H]1OC(=O)[C@H](C)[C@@H](O[C@H]2C[C@@](C)(OC)[C@@H](O)[C@H](C)O2)[C@H](C)[C@@H](O[C@@H]2O[C@H](C)C[C@H](N(C)C)[C@H]2O)[C@](C)(O)C[C@@H](C)C(=O)[C@H](C)[C@@H](O)[C@]1(C)O	Activity	98%
CC(=O)O[C@H]1C[C@@]2(C)[C@@H](C[C@@H](O)[C@H]3[C@@]4(C)CC[C@@H](O)[C@@H](C)[C@@H]4CC[C@@]32C)/C1=C(\CCC=C(C)C)C(=O)O	Activity	83%
CCC[C@@H]1C[C@@H](C(=O)N[C@@H]([C@H]2O[C@H](SC)[C@H](O)[C@@H](O)[C@H]2O)[C@H](C)Cl)N(C)C1	Activity	98%

====

Overview of recorded Activity for various compounds
System: Staphylococcus aureus
test_name: Antimicrobial activity against Staphylococcus aureus clone 2-2 harboring staphylococcal cassette chromosome mec element type U5 assessed as percent susceptible isolates by kirby-bauer method
Assay type: functional
quantity_measured: Activity (%)

smiles_string	unit_abbrev	observed_result
CC(=O)O[C@H]1C[C@@]2(C)[C@@H](C[C@@H](O)[C@H]3[C@@]4(C)CC[C@@H](O)[C@@H](C)[C@@H]4CC[C@@]32C)/C1=C(\CCC=C(C)C)C(=O)O	%	100
CO/N=C(\C(=O)N[C@@H]1C(=O)N2C(C(=O)O)=C(CSc3nc(=O)c(O)nn3C)CS[C@H]12)c1csc(N)n1	%	0
CCC[C@@H]1C[C@@H](C(=O)N[C@@H]([C@H]2O[C@H](SC)[C@H](O)[C@@H](O)[C@H]2O)[C@H](C)Cl)N(C)C1	%	100
CO[C@H]1/C=C/O[C@@]2(C)Oc3c(C)c(O)c4c(O)c(c(/C=N/N5CCN(C)CC5)c(O)c4c3C2=O)NC(=O)/C(C)=C\C=C\[C@H](C)[C@H](O)[C@@H](C)[C@@H](O)[C@@H](C)[C@H](OC(C)=O)[C@@H]1C	%	100
CC[C@H]1OC(=O)[C@H](C)[C@@H](O[C@H]2C[C@@](C)(OC)[C@@H](O)[C@H](C)O2)[C@H](C)[C@@H](O[C@@H]2O[C@H](C)C[C@H](N(C)C)[C@H]2O)[C@](C)(O)C[C@@H](C)C(=O)[C@H](C)[C@@H](O)[C@]1(C)O	%	0

====

System: Staphylococcus aureus
test_name: Antimicrobial activity against Staphylococcus aureus clone 3-3 harboring staphylococcal cassette chromosome mec element type 6 assessed as percent susceptible isolates by kirby-bauer method
Format: functional
Overview of recorded Activity for various compounds

compound	unit_abbrev	Activity
CCC[C@@H]1C[C@@H](C(=O)N[C@@H]([C@H]2O[C@H](SC)[C@H](O)[C@@H](O)[C@H]2O)[C@H](C)Cl)N(C)C1 [CLINDAMYCIN]	%	100
CO[C@H]1/C=C/O[C@@]2(C)Oc3c(C)c(O)c4c(O)c(c(/C=N/N5CCN(C)CC5)c(O)c4c3C2=O)NC(=O)/C(C)=C\C=C\[C@H](C)[C@H](O)[C@@H](C)[C@@H](O)[C@@H](C)[C@H](OC(C)=O)[C@@H]1C [RIFAMPIN]	%	100
CC(=O)O[C@H]1C[C@@]2(C)[C@@H](C[C@@H](O)[C@H]3[C@@]4(C)CC[C@@H](O)[C@@H](C)[C@@H]4CC[C@@]32C)/C1=C(\CCC=C(C)C)C(=O)O [FUSIDIC ACID]	%	0
CO/N=C(\C(=O)N[C@@H]1C(=O)N2C(C(=O)O)=C(CSc3nc(=O)c(O)nn3C)CS[C@H]12)c1csc(N)n1 [CEFTRIAXONE]	%	0
CC[C@H]1OC(=O)[C@H](C)[C@@H](O[C@H]2C[C@@](C)(OC)[C@@H](O)[C@H](C)O2)[C@H](C)[C@@H](O[C@@H]2O[C@H](C)C[C@H](N(C)C)[C@H]2O)[C@](C)(O)C[C@@H](C)C(=O)[C@H](C)[C@@H](O)[C@]1(C)O [ERYTHROMYCIN]	%	100

====

Test system: Staphylococcus aureus
test_name: Antimicrobial activity against Staphylococcus aureus clone 2-2 harboring staphylococcal cassette chromosome mec element type 1 assessed as percent susceptible isolates by kirby-bauer method
Type: functional

smiles_string	Activity
CC[C@H]1OC(=O)[C@H](C)[C@@H](O[C@H]2C[C@@](C)(OC)[C@@H](O)[C@H](C)O2)[C@H](C)[C@@H](O[C@@H]2O[C@H](C)C[C@H](N(C)C)[C@H]2O)[C@](C)(O)C[C@@H](C)C(=O)[C@H](C)[C@@H](O)[C@]1(C)O	67%
CO/N=C(\C(=O)N[C@@H]1C(=O)N2C(C(=O)O)=C(CSc3nc(=O)c(O)nn3C)CS[C@H]12)c1csc(N)n1	11%
CCC[C@@H]1C[C@@H](C(=O)N[C@@H]([C@H]2O[C@H](SC)[C@H](O)[C@@H](O)[C@H]2O)[C@H](C)Cl)N(C)C1	89%
